# test target: human S1P1 (Homo sapiens (Human))
# assay details: S1P1 binding assay (33P-S1P radioligand competition, CHO cell membranes)
# condition description: 33P-S1P competition, membranes of CHO cells expressing human S1P1; read-out: S1P1 Binding IC50
measurement name: pIC50
Note on pIC50: it is the negative log10 of concentration, concentration in mol/L.

Data request: For COCCCCCC1CCc2cc([C@H]3CC[C@](N)(COP(=O)(O)O)C3)ccc2C1 (single isomer, unassigned) [Example 689] , write its pIC50.
Data returned: 8.77

Data request: For COCCCCCC1CCc2cc([C@H]3CC[C@](N)(COP(=O)(O)O)C3)ccc2C1 (single isomer, unassigned) [Example 690] , write its pIC50.
Data returned: 8.52

Data request: For COCCCCCC1CCc2cc([C@@H]3CC[C@](N)(COP(=O)(O)O)C3)ccc2C1 (single isomer, unassigned) [Example 692] , write its pIC50.
Data returned: 8.64

* * *

# test target: human S1P1 (Homo sapiens (Human))
# assay details: S1P1 binding assay (33P-S1P radioligand competition, CHO cell membranes)
# condition description: phosphate examples; read-out: S1P1 Binding
measurement name: IC50

Data request: Check human S1P1 (Homo sapiens (Human)) data and give IC50 for N[C@]1(COP(=O)(O)O)CC[C@H](c2ccc3c(c2)CCC2(CCCCO2)C3)C1 (stereo partly shown) [compound 634] .
Data returned: 10 to 100 nM

Data request: Check human S1P1 (Homo sapiens (Human)) data and give IC50 for CCCCCOC[C@@H]1COc2cc([C@H]3CC[C@](N)(COP(=O)(O)O)C3)ccc2O1 [Example 412] .
Data returned: < 10 nM

Data request: Check human S1P1 (Homo sapiens (Human)) data and give IC50 for N[C@]1(COP(=O)(O)O)CC[C@H](c2ccc3c(c2)CC[C@H](CSCCc2ccccc2)C3)C1 [compound 521] .
Data returned: < 10 nM

Data request: Check human S1P1 (Homo sapiens (Human)) data and give IC50 for N[C@]1(COP(=O)(O)O)CC[C@H](c2ccc3c(c2)CC[C@@H](COCc2ccsc2)C3)C1 [compound 473] .
Data returned: < 10 nM

Data request: Check human S1P1 (Homo sapiens (Human)) data and give IC50 for CCCCC=C[C@H]1CCc2cc([C@H]3CC[C@](N)(COP(=O)(O)O)C3)ccc2C1 [compound 649] .
Data returned: 10 to 100 nM

Data request: Check human S1P1 (Homo sapiens (Human)) data and give IC50 for COc1ccc(C[C@@H]2CCc3cc([C@H]4CC[C@](N)(COP(=O)(O)O)C4)ccc3C2)cc1OC [compound 553] .
Data returned: 100 to 1000 nM

Data request: Check human S1P1 (Homo sapiens (Human)) data and give IC50 for NC1(COP(=O)(O)O)CC[C@H](c2ccc3c(c2)CC[C@@H](c2ccccc2)C3)C1 (single isomer, unassigned) [compound 570] .
Data returned: 10 to 100 nM

* * *

# test target: hS1P1/CHO cells (Homo sapiens (Human))
# assay details: hS1P1 ERK phosphorylation (S1P1 pERK)
# condition description: phosphate examples
pEC50: −log10 of the molar value.
measurement name: pEC50

Data request: For N[C@]1(COP(=O)(O)O)CC[C@H](c2ccc3c(c2)CC[C@@H](CSc2cccnc2)C3)C1 [compound 516] , write its pEC50.
Data returned: > 8.00

Data request: For N[C@]1(COP(=O)(O)O)CC[C@H](c2ccc3c(c2)CC[C@H](c2ccncc2)C3)C1 [compound 574] , write its pEC50.
Data returned: 7.00 to 8.00

Data request: For CCCCC=C[C@H]1CCc2cc([C@H]3CC[C@](N)(COP(=O)(O)O)C3)ccc2C1 [compound 648] , write its pEC50.
Data returned: 7.00 to 8.00

Data request: For N[C@@]1(COP(=O)(O)O)CC[C@@H](c2ccc3c(c2)CC[C@H](OCCOCc2cccs2)C3)C1 (single isomer, unassigned) [compound 589] , write its pEC50.
Data returned: > 8.00

Data request: For CCOc1ccc(C[C@@H]2CCc3cc([C@H]4CC[C@](N)(COP(=O)(O)O)C4)ccc3C2)cc1 [compound 549] , write its pEC50.
Data returned: > 8.00

Data request: For CC(C)CSC[C@@H]1CCc2cc([C@H]3CC[C@](N)(COP(=O)(O)O)C3)ccc2C1 [compound 504] , write its pEC50.
Data returned: > 8.00

Data request: For N[C@]1(COP(=O)(O)O)CC[C@H](c2ccc3c(c2)CC[C@@H](COc2cccc(OC(F)(F)F)c2)C3)C1 [compound 497] , write its pEC50.
Data returned: > 8.00

Data request: For COc1cccc(CCC[C@@H]2CCc3cc([C@H]4CC[C@](N)(COP(=O)(O)O)C4)ccc3C2)c1 [compound 564] , write its pEC50.
Data returned: 7.00 to 8.00

Data request: For Cc1ccc(COC[C@@H]2CCc3cc([C@H]4CC[C@](N)(COP(=O)(O)O)C4)ccc3C2)cc1 [compound 474] , write its pEC50.
Data returned: > 8.00

Data request: For CC(C)SCC[C@@H]1CCc2cc([C@H]3CC[C@](N)(COP(=O)(O)O)C3)ccc2C1 [compound 537] , write its pEC50.
Data returned: > 8.00

Data request: For C/C(=N\OCc1ccccc1)[C@@H]1CCc2cc([C@H]3CC[C@](N)(COP(=O)(O)O)C3)ccc2C1 [compound 664] , write its pEC50.
Data returned: > 8.00

Data request: For N[C@]1(COP(=O)(O)O)CC[C@H](c2ccc3c(c2)CC[C@H](C[S+]([O-])c2ccccc2)C3)C1 (stereo partly drawn) [Example 667] , write its pEC50.
Data returned: 6.00 to 7.00

Data request: For CCCCCC[C@@H]1Cc2ccc([C@H]3CC[C@](N)(COP(=O)(O)O)C3)cc2CO1 [compound 427] , write its pEC50.
Data returned: > 8.00

Data request: For Cc1ccccc1OC[C@H]1CCc2cc([C@H]3CC[C@](N)(COP(=O)(O)O)C3)ccc2C1 [compound 468] , write its pEC50.
Data returned: 7.00 to 8.00

Data request: For CCCCSC[C@H]1CCc2cc([C@@H]3CC[C@](N)(COP(=O)(O)O)C3)ccc2C1 [compound 505] , write its pEC50.
Data returned: 7.00 to 8.00

* * *

# test target: human S1P1 (Homo sapiens (Human), UniProt P21453)
# Sequence (P21453 whole entry): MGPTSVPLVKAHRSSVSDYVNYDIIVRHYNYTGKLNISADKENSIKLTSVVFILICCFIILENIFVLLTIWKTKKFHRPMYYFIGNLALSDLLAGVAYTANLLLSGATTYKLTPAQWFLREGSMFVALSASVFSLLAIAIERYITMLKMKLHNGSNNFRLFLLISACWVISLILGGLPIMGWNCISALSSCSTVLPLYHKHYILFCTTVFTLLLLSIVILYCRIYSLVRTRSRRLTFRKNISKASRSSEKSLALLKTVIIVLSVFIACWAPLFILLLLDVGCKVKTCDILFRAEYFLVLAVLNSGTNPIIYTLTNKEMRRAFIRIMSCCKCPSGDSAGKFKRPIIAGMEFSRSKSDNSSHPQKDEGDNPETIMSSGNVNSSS
# assay details: S1P1 binding assay (33P-S1P radioligand competition, CHO cell membranes)
# condition description: phosphate examples; read-out: S1P1 Binding
pIC50: −log10 of the molar value.
measurement name: pIC50

Data request: Check human S1P1 (Homo sapiens (Human), UniProt P21453) data and give pIC50 for CCCC/C=C/[C@@H]1CCc2cc([C@H]3CC[C@](N)(COP(=O)(O)O)C3)ccc2C1 [compound 637] .
Data returned: > 8.00

Data request: Check human S1P1 (Homo sapiens (Human), UniProt P21453) data and give pIC50 for `COc1ccc(F)c(OC[C@@H]2CCc3cc([C@H]4CC[C@](N)(COP(=O)(O)O)C4)ccc3C2)c1` .
Data returned: 6.00 to 7.00

Data request: Check human S1P1 (Homo sapiens (Human), UniProt P21453) data and give pIC50 for `CC(C)c1ccccc1SC[C@@H]1CCc2cc([C@H]3CC[C@](N)(COP(=O)(O)O)C3)ccc2C1` .
Data returned: 7.00 to 8.00

Data request: Check human S1P1 (Homo sapiens (Human), UniProt P21453) data and give pIC50 for `CC(C)OCCC[C@H]1CCc2cc([C@@H]3CC[C@@](N)(COP(=O)(O)O)C3)ccc2C1` .
Data returned: 7.00 to 8.00

* * *

# test target: human S1P1 (Homo sapiens (Human))
# assay details: S1P1 binding assay (33P-S1P radioligand competition, CHO cell membranes)
# condition description: phosphate examples; read-out: S1P1 Binding
pIC50: −log10 of the molar value.
measurement name: pIC50

Data request: Check human S1P1 (Homo sapiens (Human)) data and give pIC50 for N[C@]1(COP(=O)(O)O)CC[C@H](c2ccc3c(c2)CC[C@@H](CSc2ccncc2)C3)C1 [compound 517] .
Data returned: 7.00 to 8.00

Data request: Check human S1P1 (Homo sapiens (Human)) data and give pIC50 for CC(C)(C)CCOC[C@@H]1CCc2cc([C@H]3CC[C@](N)(COP(=O)(O)O)C3)ccc2C1 [compound 464] .
Data returned: > 8.00

Data request: Check human S1P1 (Homo sapiens (Human)) data and give pIC50 for COc1cccc(OCC[C@H]2CCc3cc([C@H]4CC[C@](N)(COP(=O)(O)O)C4)ccc3C2)c1 [compound 545] .
Data returned: 7.00 to 8.00

Data request: Check human S1P1 (Homo sapiens (Human)) data and give pIC50 for CC/C=C/CC[C@@H]1CCc2cc([C@H]3CC[C@](N)(COP(=O)(O)O)C3)ccc2C1 [compound 650] .
Data returned: 7.00 to 8.00

Data request: Check human S1P1 (Homo sapiens (Human)) data and give pIC50 for COCc1cccc(OC[C@@H]2CCc3cc([C@H]4CC[C@](N)(COP(=O)(O)O)C4)ccc3C2)c1 [compound 480] .
Data returned: 5.00 to 6.00

Data request: Check human S1P1 (Homo sapiens (Human)) data and give pIC50 for COc1ccc(F)c(CC[C@H]2CCc3cc([C@@H]4CC[C@@](N)(COP(=O)(O)O)C4)ccc3C2)c1 (single isomer, unassigned) [compound 609] .
Data returned: 7.00 to 8.00

Data request: Check human S1P1 (Homo sapiens (Human)) data and give pIC50 for CN(C)C(=O)Cc1ccc(C[C@@H]2CCc3cc([C@H]4CC[C@](N)(COP(=O)(O)O)C4)ccc3C2)cc1 [compound 562] .
Data returned: 6.00 to 7.00
